Cited source: PubChem BioAssay (NCI)

I'd be grateful if you could share measured TGI for these entries.
Test system: COLO 205 colon
Assay: NCI tumour cell line growth inhibition, 48 h
Your answer should be a plain number; it is taken to be in µM.

Value wanted: TGI (COLO 205 colon) of entry `Cc1ncc(C(=O)Nc2ccc(CN3CCN(C)CC3)c(C(F)(F)F)c2)cc1C#Cc1cnc2cccnn12`
1.31

Value wanted: TGI (COLO 205 colon) of entry `CCC[CH2][Sn]([Cl])([Cl])[CH2]CCC`
3.2

* * *

Test system: NCI/ADR-RES ovarian
Test: NCI tumour cell line growth inhibition, 48 h
METRIC NAME: GI50

What value of GI50 has been recorded for this entry: `CC[n+]1oc(C(=O)c2ccc(Cl)cc2)c(-c2ccccc2)c1-c1ccccc1.[Cl][Fe]([Cl])([Cl])[Cl]`
> 100 µM

What value of GI50 has been recorded for this entry: `O=C(O)c1ccc(NCn2nc(-c3ccccc3O)oc2=S)cc1`
62.7 µM

What value of GI50 has been recorded for this entry: `COc1ccccc1C#Cc1ccccc1C#CCCCCO`
21.9 µM

What value of GI50 has been recorded for this entry: `O=[N+]([O-])c1cc(Cl)c2[nH]c3c(Cl)cc([N+](=O)[O-])cc3c2c1`
0.345 µM

What value of GI50 has been recorded for this entry: `O=C(Nc1cc(C(F)(F)F)ccc1Cl)c1ccc(NC2=C(Cl)C(=O)N(Cc3ccccc3)C2=O)cc1`
62.7 µM

What value of GI50 has been recorded for this entry: `CC[C@H](Nc1ncnc2nc[nH]c12)c1nc2cccc(F)c2c(=O)n1-c1ccccc1`
86.8 µM

What value of GI50 has been recorded for this entry: `Cc1nc(-c2ccccc2)n2nc(NCCCN3CCOCC3)ncc12`
> 25 µM

What value of GI50 has been recorded for this entry: `Nc1ccccc1C#C/C=C\C#Cc1ccc(OCCCNC(=O)c2cc3ccccc3[nH]2)cc1`
10.1 µM

What value of GI50 has been recorded for this entry: `COc1cc(F)c(F)c(Nc2ccc(I)cc2F)c1NS(=O)(=O)C1(C[C@H](O)CO)CC1`
> 5.58 µM

* * *

System: RXF 393 renal
Assay: NCI tumour cell line growth inhibition, 48 h
METRIC NAME: GI50

Value wanted: GI50 (RXF 393 renal) of entry `COc1cc2nc(SCc3cc(OC)c(OC)c(OC)c3)n(Cc3ccccc3)c(=O)c2cc1OC`
1.02 µM

Value wanted: GI50 (RXF 393 renal) of entry CC(=O)Oc1ccc(C23c4ccccc4C2(OC(C)=O)c2cc(OC(C)=O)ccc23)cc1 (stereo not drawn)
3.38 µM

Value wanted: GI50 (RXF 393 renal) of entry `O=C1/C(=C/c2cccc(Br)c2)COc2ccc(O)cc21`
2.12 µM

Value wanted: GI50 (RXF 393 renal) of entry `CCOC(=O)Nc1nc2ccc(OC)cc2s1`
> 100 µM

Value wanted: GI50 (RXF 393 renal) of entry `OCc1ccc(N2CCc3cccc(F)c3C2)cc1Cl`
12.6 µM

Value wanted: GI50 (RXF 393 renal) of entry `CCC[CH2][Sn]([Cl])([Cl])[CH2]CCC`
0.232 µM

Value wanted: GI50 (RXF 393 renal) of entry `Cn1c(-c2c(N)n(Nc3cccc(Cl)c3)c3nc(C#N)c(C#N)nc23)nc2ccccc21`
0.0138 µM

Value wanted: GI50 (RXF 393 renal) of entry `COc1ccccc1C#Cc1ccccc1C#CCCCCO`
13.8 µM
